Let's look at some sequences and their measured apparent KD of MS2 coat protein.
# System: MS2 coat protein
# PROTOCOL NOTES: apparent KD of MS2 coat protein; designed switch direction (-1 OFF switch, 1 ON switch): -1; higher = weaker reporter binding
# MEASUREMENT SETUP: Eterna round: R95; input ligand: FMN 200 uM
Provide only the numeric value, understood in nM.

Worked cases, answers included:
- RESIDUE SEQUENCE: "AGUACUAACACGAAAGUGUUAGUACUAUAAGUUUGUGUUACAUGAGGAUCACCCAUGUCCUCAUAAGCUCGUCUUGU [Mat - Sensor v3 - Turn-off var 2 - D95] (puzzle: Sensor v3, turn-off variant 2)"
  SUBJECT OF TEST: "MS2 coat protein"
  ENDPOINT RESULT: 911
- RESIDUE SEQUENCE: "AGUAACUAUCACGAAAGUGAUAGUUACACAAGCAGUGAAACAUGAGGAUCACCCAUGUCCUCAUAUGCUCGUCUUAU [Sensor 3 - 30] (puzzle: Sensor v3, turn-off variant 2)"
  SUBJECT OF TEST: "MS2 coat protein"
  ENDPOINT RESULT: 119
- RESIDUE SEQUENCE: "AGUACUAACACGAAAGUGUUUGUACAAUAAGCUUGUGAAACAUGAGGAUCACCCAUGUCCUCAUAAGCUCGUCUUAU [salish99_TOv2_r3_035] (puzzle: Sensor v3, turn-off variant 2)"
  SUBJECT OF TEST: "MS2 coat protein"
  ENDPOINT RESULT: 17.5
- RESIDUE SEQUENCE: "UAAAGCUUUGAGAUCCUUAACAUGAGGAUCACCCAUGUUCGUCUUAUGAUGGUCUGAUCCCUGAGGAUCGGACCGUU [Mat - Sensor v3 - turn-off var 1 - JL Mod - D5] (puzzle: Sensor v3, turn-off variant 1)"
  SUBJECT OF TEST: "MS2 coat protein"
  ENDPOINT RESULT: 269

input: Endpoint output: apparent KD of MS2 coat protein of UUUAAUUUUUUUUUUUUACAAGCUUUUUGCUCGUCUUAUACAUGAGGAUCACCCAUGUGGGUGAAGGAUAAAUUAUC [JMF 26] (puzzle: Sensor v3, turn-off variant 2) . Value?
output: 35.6

###

# Tested on: MS2 coat protein
# PROTOCOL NOTES: apparent KD of MS2 coat protein; higher = weaker reporter binding
# MEASUREMENT SETUP: Eterna round: R107; input ligand: theophylline 20 uM
Listing of entries alongside the reported apparent KD of MS2 coat protein.
The reply should be a number in nM, with the unit left off.

input: Identify the measured apparent KD of MS2 coat protein of AUUAAUUGUCGUGAUACCAGACAUACAUGAGGAUCACCCAUGUUAAGUAACAUUUUUUAUGUCCCUUGGCAGCACUUUUUAAUUA [JR_Nu_SSTheophyB_Sub017] for MS2 coat protein.
output: 24.8

input: Can you look up apparent KD of MS2 coat protein on MS2 coat protein for AUAUAUACAUGAGGAUCACCCAUGUUAUUUCGAGGACCGGUACGGCCGCCACUCGAUAGAGUGGAAGUAACAUUUGUUAGAUGAU [JR_SSTryptoA_Sub013] ?
output: 17

input: Kindly state the measured apparent KD of MS2 coat protein obtained for UUCACAUGGUAUGAAUAUACAUAUAAGAAACGAGGACCGGUACGGCCGCCACUCGUGCCGGAAACAUGAGGAUCACCCAUGUGUU [AK1.1 Exclusion TrypA mod IceBolt] with MS2 coat protein.
output: 55.9

input: What is its apparent KD of MS2 coat protein for MS2 coat protein? Entry: UAUCCACAUGAGGAUCACCCAUGUAAGGAAGGAGCGGUGAAUGCACCAGGUAGGUCGCCUUGCUGAGGACAGCCGGUGGAUUCGU [Exclusion - Arginine A (Freestyle 24)]
output: 17.9

input: Query the reported apparent KD of MS2 coat protein for MS2 coat protein; item: AAUAAACAUGAGGAUCACCCAUGUAGGGUGCGAGGACCGGUACGGCCGCCACUCGGGUGAAAACAUGAGGAUCACCCAUGUUAAA [Cloverleaf #DoubleMS2 #GUTurnoff]
output: 176
